test system: UMB1949 (TSC2-deficient); assay: relative viability vs DMSO (fraction); higher = less cytotoxic; settings: 40 nM; serum: 0.1% FBS; 72 h
Structures can show the parent of a compound that is named as a salt.
Kindly supply the reported relative viability values for the records listed here.
One number for each entry.

Examples with answers:
O=C(Cc1ccc(-c2ccc(OCCN3CCOCC3)cc2)cn1)NCc1ccccc1 [KX2-391]	0.00501
C=C1C[C@@H]2[C@H](CC[C@]3(C)C(=O)CC[C@@H]23)[C@@]2(C)C=CC(=O)C=C12 [Exemestane]	1.02

Hey, can you go through the list below and give me relative viability for every item?
1. CC(C)C[C@H](NC(=O)[C@H](Cc1ccccc1)NC(=O)c1cnccn1)B(O)O [Bortezomib]
2. Cc1ccc([N+](=O)[O-])cc1S(=O)(=O)N(C)/N=C/c1cnc2ccc(Br)cn12 [PIK-75 Hydrochloride]

OUT:
1. 0.00739
2. 0.00679

====

Provide the recorded relative viability for the entries that follow.
system: UMB1949 (TSC2-deficient); test: relative viability vs DMSO (fraction); higher = less cytotoxic; settings: 1000 nM; serum: 0.1% FBS; 72 h;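 also: renal angiomyolipoma cell lines screened in 384-well plates, viability normalized per plate to DMSO-treated cells, each plate carrying 50 nM rapamycin and 1 µM staurosporine controls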
One number for each entry.

NC(=O)Nc1cc(-c2cccc(F)c2)sc1C(=O)N[C@H]1CCCNC1 [AZD7762]	0.000402

State the recorded relative viability for every item in the following list.
1. Nc1nc2[nH]cc(CCc3ccc(C(=O)N[C@@H](CCC(=O)O)C(=O)O)cc3)c2c(=O)[nH]1 [Pemetrexed disodium]
2. Nc1ccn([C@@H]2O[C@H](CO)[C@@H](O)[C@@H]2O)c(=O)n1 [Cytarabine]
3. CO[C@H]1C[C@@H]2CC[C@@H](C)[C@@](O)(O2)C(=O)C(=O)N2CCCC[C@H]2C(=O)O[C@H]([C@H](C)C[C@@H]2CC[C@@H](O)[C@H](OC)C2)CC(=O)[C@H](C)/C=C(\C)[C@@H](O)[C@@H](OC)C(=O)[C@H](C)C[C@H](C)/C=C/C=C/C=C/1C [Rapamycin(Sirolimus)]
4. Cn1cc(-c2ccc3nnc(Sc4ccc5ncccc5c4)n3n2)cn1 [SGX-523]

OUT:
0.00243
0.00531
0.466
1.04

====

Consider the following molecules; for each one, report its relative viability.
system: 621-102 (TSC2-deficient); assay: relative viability vs DMSO; higher = less cytotoxic; conditions: 10 µM; serum: 10% FBS; 72 h;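 also: immortalized renal angiomyolipoma cells stably carrying empty vector or TSC2, dosed in 384-well plates in DMEM, viability normalized to vehicle-treated wells within each plate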
Where a name gives a salt, the structure may show the parent alone.
Numbers only, in %.

Working through the 6 molecules below one at a time, give relative viability for each.
1. CCN(CC)CCNC(=O)c1c(C)[nH]c(/C=C2\C(=O)Nc3ccc(F)cc32)c1C [Sunitinib Malate]
2. CC(C)C[C@H](NC(=O)CNC(=O)c1cc(Cl)ccc1Cl)B1OC(=O)C(CC(=O)O)(CC(=O)O)O1
3. COc1cc(Nc2ncc(F)c(Nc3ccc4c(n3)NC(=O)C(C)(C)O4)n2)cc(OC)c1OC [R406 (free base)]
4. CCOc1ccn(-c2ccc(F)cc2)c(=O)c1C(=O)Nc1ccc(Oc2ccnc(N)c2Cl)c(F)c1
5. CN(C)Cc1ccc(-c2nc3cccc4c3n2CCNC4=O)cc1
6. CC(C)CC(=O)Nc1n[nH]c2c1CN(C(=O)C1CCN(C)CC1)C2(C)C

OUT:
[71, 2.38, 101, 97.2, 110, 13.5]

Record relative viability for all entries; do not skip any.
1. CN1CCN(C2=Nc3cc(Cl)ccc3Nc3ccccc32)CC1
2. CCC(C)(Oc1ccc(C2(c3ccc(OC(C)(CC)C(=O)O)cc3)CCCCC2)cc1)C(=O)O (stereo unspecified) [Clinofibrate]

OUT:
98.1
107

Hi there! I need relative viability for each item below, if you can.
1. Cc1cc(Nc2cc(CN3CCOCC3)c3nc(C)c(Cc4ccc(Cl)cc4F)n3n2)n[nH]1
2. CCCN[C@H]1CCc2nc(N)sc2C1 [Pramipexole dihydrochloride monohydrate]
3. CCCCNc1ccc(C(=O)OCCN(C)C)cc1 [Tetracaine HCl]
4. CC[C@H]1OC(=O)[C@H](C)[C@@H](O[C@H]2C[C@@](C)(OC)[C@@H](O)[C@H](C)O2)[C@H](C)[C@@H](O[C@@H]2O[C@H](C)C[C@H](N(C)C)[C@H]2O)[C@](C)(OC)C[C@@H](C)C(=O)[C@H](C)[C@@H](O)[C@]1(C)O
5. Cc1nnc(C(C)C)n1[C@H]1C[C@H]2CC[C@@H](C1)N2CC[C@H](NC(=O)C1CCC(F)(F)CC1)c1ccccc1 [Maraviroc (Selzentry)]
6. COc1ncc(-c2ccc3nccc(-c4ccnnc4)c3c2)cc1NS(=O)(=O)c1ccc(F)cc1F
7. N#Cc1ccc(C(c2ccc(C#N)cc2)n2cncn2)cc1

OUT:
1: 26.9; 2: 94.4; 3: 105; 4: 98.8; 5: 107; 6: 26.3; 7: 111

IN: Lookup: relative viability / 621-102 (TSC2-deficient) / c1ccc2c(CCNc3ccc(Nc4ccncc4)cc3)c[nH]c2c1
OUT: 68.7

All values here come from the supplement of paper PMC8960247.
